System: UO-31 renal
test: NCI-60 one-dose screen, 48 h (100 = growth as untreated, 0 = no growth, -100 = all killed)
experimental-setup: 10 µM unless noted
About 83,000 compounds went through this panel and 20% of them were active in at least one assay; those are over-represented in the sample as a whole.
property-label: growth (%)
The response must be a number in % with no trailing unit.

Cc1ccc(/C=C/C(=O)c2cccc(OCCCOc3cccc(C(=O)/C=C/c4ccc(C)cc4)c3)c2)cc1; 64
COc1ccc2[nH]cc(-c3nc(-c4c[nH]c5c(Cl)nccc45)cs3)c2c1; 32.4
COc1ccc(-c2ccc(-c3ccc(C(=N)N)nc3)s2)cc1Cl; -94.8
Oc1c(CN2CCOCC2)cc(COCc2ccccc2)c2cccnc12; 6.45
O=S1(=O)C=C(c2ccccc2)C(c2ccccc2)=C1; -6.37
CC1(C)CC2=C3C=C[C@@H]4[C@@]5(C)CCC(=O)C(C)(C)[C@@H]5CC[C@@]4(C)[C@]3(C)CC[C@@]2(C(=O)O)C[C@H]1O; 17.1

Q. Bench note: what growth did Cc1ccnc(Nc2ccc([N+](=O)[O-])c(NCCN3CCOCC3)n2)c1 show?
A. 34.2

Q. // growth lookup, key: COc1ccc(C2=NN(C(C)=O)C(c3cn(-c4ccccc4)nc3-c3ccc(Cl)cc3)C2)cc1 (configuration not stated)
A. 38.5

Q. Any idea what its growth is? The compound is Cc1nc2c(c(=O)[nH]1)C(c1ccccc1)c1ccc3ccccc3c1O2 (configuration not stated)
A. 38.6

Q. Give its growth value. Item: O=P(O)(O)OCC1OC(n2cnc3c(NCc4ccco4)ncnc32)C(O)C1O (configuration not stated)
A. -6.51

Q. Reported growth, compound O=C(Nc1ccc(Cl)cc1)Oc1c(Cl)c(Cl)c(Cl)c(Cl)c1Cl : ____
A. 78.5

Q. Sample NC(N)=NS(=O)(=O)c1ccc(NC2=C(I)C(=O)c3ncccc3C2=O)cc1 — what was its growth?
A. 75.1

Q. Give the measured growth of NC1=Nc2cc(OCCCCN3Cc4ccccc4C3)c(OCC3CC3)cc2C12CCCC2 .
A. 43.2

Q. Recorded growth for C=CCC(CCCC)(C(=O)OCC)C(=O)OCC , please?
A. 85.3

Q. For the compound Nc1[nH]c(=S)nc2oc(-c3ccccc3)c(-c3ccccc3)c12 , what growth is on record?
A. 86.9

Q. Tell me the measured growth of O=[N+]([O-])c1cc(NS(=O)(=O)c2ccccc2)ccc1NS(=O)(=O)c1ccccc1 , please.
A. 95.8

Q. Quick one: growth of C=C1C(=O)O[C@H]2[C@H]1CC/C(Cn1cc(CCC)nn1)=C\CC[C@@]1(C)O[C@@H]21 ?
A. 0.946

Q. Which growth is listed for O=C1c2ccccc2C(=O)c2c1cc1c(c2[N+](=O)[O-])OCO1 ?
A. -3.07

Q. # get_value(readout='growth', item= CCOC(=O)c1c(C)nc2c(c1N)CC(=O)N2Cc1ccc(OC)cc1 )
A. 33.8

Q. Requested read-out: growth. Entry: CN(Cc1ccccc1)c1nc(Cl)c(C2CC(c3ccccc3)=NN2c2ccccc2)s1 (configuration not stated)
A. 81.5

Q. Quick one: growth for O=C(NCc1cccc(CNC(=O)Nc2nc3ccccc3[nH]2)c1)Nc1nc2ccccc2[nH]1 ?
A. 62.6

Q. Bench note: what growth did C/C(=N\O)c1ccc(NC(=O)CSc2nnc(-c3cc(-c4ccc(S(N)(=O)=O)cc4)nc4ccccc34)n2-c2ccccc2)cc1 show?
A. 85.3

Q. Dear colleague, I am looking for the recorded growth of the following compound: CCN1C(=O)N(CC)C2C1NN=c1s/c(=C\c3ccc(C(F)(F)F)cc3)c(=O)n12 (configuration not stated)
A. 34.3

Q. GET /values?readout=growth&item= CCS/C(Nc1ccccc1)=C(\C#N)C(=O)Nc1ccc(OC)cc1
A. 50

Q. Need growth of Cc1ccc(C(=O)Nc2cccc(C#Cc3cccc4[nH]nc(N)c34)c2)cc1C(F)(F)F , thanks.
A. 36.7

Q. Reported growth, compound C=C1C(=O)O[C@H]2[C@H]1CC/C(COC(=O)CSCSCC(=O)OC/C1=C/CC[C@@]3(C)O[C@H]3[C@H]3OC(=O)C(=C)[C@@H]3CC1)=C\CC[C@@]1(C)O[C@@H]21 : ____
A. -0.857
